For each record, write down the corresponding IC50.
TARGET OR TEST SYSTEM: c-kit kinase (Homo sapiens (Human), UniProt P10721)
Sequence (P10721 26-976): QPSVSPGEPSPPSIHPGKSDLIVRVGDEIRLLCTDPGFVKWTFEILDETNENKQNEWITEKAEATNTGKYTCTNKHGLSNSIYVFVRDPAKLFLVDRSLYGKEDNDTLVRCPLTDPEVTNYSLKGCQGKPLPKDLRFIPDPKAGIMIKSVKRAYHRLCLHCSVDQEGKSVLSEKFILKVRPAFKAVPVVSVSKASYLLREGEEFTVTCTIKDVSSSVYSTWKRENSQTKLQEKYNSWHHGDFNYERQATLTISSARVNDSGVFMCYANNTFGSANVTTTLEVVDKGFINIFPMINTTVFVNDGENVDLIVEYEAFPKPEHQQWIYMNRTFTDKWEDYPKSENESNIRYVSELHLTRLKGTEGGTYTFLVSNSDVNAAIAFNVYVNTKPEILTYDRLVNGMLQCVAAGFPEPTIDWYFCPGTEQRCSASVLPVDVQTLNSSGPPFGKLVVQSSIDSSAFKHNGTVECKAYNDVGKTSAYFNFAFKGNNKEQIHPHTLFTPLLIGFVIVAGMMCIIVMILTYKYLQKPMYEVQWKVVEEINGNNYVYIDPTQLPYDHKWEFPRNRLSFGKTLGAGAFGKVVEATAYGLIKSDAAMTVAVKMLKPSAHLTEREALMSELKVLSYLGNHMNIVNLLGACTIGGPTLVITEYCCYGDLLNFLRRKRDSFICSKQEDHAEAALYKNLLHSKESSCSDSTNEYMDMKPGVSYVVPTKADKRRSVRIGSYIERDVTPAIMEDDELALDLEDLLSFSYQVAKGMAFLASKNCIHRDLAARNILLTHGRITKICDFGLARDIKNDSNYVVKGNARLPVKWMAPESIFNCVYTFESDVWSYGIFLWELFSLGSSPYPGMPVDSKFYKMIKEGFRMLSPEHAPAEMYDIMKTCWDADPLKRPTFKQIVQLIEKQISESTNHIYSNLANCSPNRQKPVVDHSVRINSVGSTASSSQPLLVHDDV
METHOD: c-Kit biochemical assay (AlphaScreen)
CONDITION SET: c-kit biochemical inhibitory activity

Q. Given the entry Cc1[nH]nc(C(=O)Nc2cnc3[nH]c(C4=CCN(C(=O)C5CC5)CC4)cc3c2)c1C , what IC50 was observed with c-kit kinase (Homo sapiens (Human), UniProt P10721)?
A. 0.0001 to 1 µM

Q. Report IC50 for Cc1cccnc1C(=O)Nc1cnc2[nH]c(-c3ccccc3)cc2c1 tested on c-kit kinase (Homo sapiens (Human), UniProt P10721).
A. 1 to 10 µM

Q. Form field: IC50 recorded for Cc1n[nH]c(C(=O)Nc2cnc3[nH]c(-c4ccc(F)nc4F)cc3c2)c1C with c-kit kinase (Homo sapiens (Human), UniProt P10721) (enter value)
A. 10 to 200 µM

Q. Which IC50 is reported with c-kit kinase (Homo sapiens (Human), UniProt P10721) for this entry: Cc1n[nH]c(C(=O)Nc2ccc(Nc3ccccc3)nc2)c1C ?
A. 10 to 200 µM

Q. Give c-kit kinase (Homo sapiens (Human), UniProt P10721) IC50 for O=C(Nc1cnc2[nH]c(-c3ccc(F)cc3)cc2c1)c1n[nH]c2c1CCCC2
A. 10 to 200 µM

Q. What is its IC50 for c-kit kinase (Homo sapiens (Human), UniProt P10721)? Entry: Cc1ccc(-c2cc3cc(NC(=O)c4[nH]nc(C)c4C)cnc3[nH]2)c(C)c1
A. 10 to 200 µM

* * *

TARGET OR TEST SYSTEM: UniProtKB P10721
METHOD: c-Kit biochemical assay (AlphaScreen)
CONDITION SET: c-kit biochemical inhibitory activity
Answer each item with its documented IC50.

Q. // returns reported IC50 for input NC(=O)c1cccc(C(=O)Nc2cnc3[nH]c(-c4ccc(F)cc4)cc3c2)c1
A. 1 to 10 µM

Q. I have this molecule here, Cc1n[nH]c(C(=O)Nc2cnc(Nc3ccccc3)nc2)c1C , and I need its recorded IC50.
A. 10 to 200 µM

Q. Returns the measured IC50 for the input molecule. Input: O=C(Nc1cnc2[nH]c(-c3ccc(F)cc3)cc2c1)c1n[nH]c2ccccc12
A. 10 to 200 µM

Q. If you can, please state the reported IC50 value of O=C(Nc1cnc2[nH]c(-c3ccccc3)cc2c1)c1ncccc1F .
A. 0.0001 to 1 µM

Q. Given the entry Cc1cc(C(=O)Nc2cnc3[nH]c(C4=CCN(C(=O)N5CCOCC5)CC4)cc3c2)n[nH]1 , report its measured IC50.
A. 0.0001 to 1 µM

Q. IC50 for Cc1n[nH]c(C(=O)Nc2cnc3[nH]c(C4=CCOCC4)cc3c2)c1C ?
A. 0.0001 to 1 µM

Q. # IC50 lookup, item Cc1noc(C)c1C(=O)Nc1cnc2[nH]c(-c3ccccc3)cc2c1
A. 0.0001 to 1 µM

Q. State the recorded IC50 for this entry: Cc1cc(C(=O)Nc2cnc3[nH]c(-c4ccc(F)cc4)cc3c2)[nH]n1
A. 10 to 200 µM

Q. Returns the measured IC50 for the input molecule. Input: COC(=O)c1cccc(C(=O)Nc2cnc3[nH]c(-c4ccccc4)cc3c2)c1
A. 10 to 200 µM

* * *

So I've got a bunch of molecules here, and I need their IC50 values.
TARGET OR TEST SYSTEM: c-kit kinase (Homo sapiens (Human), UniProt P10721)
METHOD: c-Kit biochemical assay (AlphaScreen)
CONDITION SET: c-kit biochemical inhibitory activity

Q. Provide value of IC50 for this record tested with c-kit kinase (Homo sapiens (Human), UniProt P10721): Cc1n[nH]c(C(=O)Nc2cnc3[nH]c(-c4cnc(N5CCN(C)CC5)nc4)cc3c2)c1C
A. 1 to 10 µM

Q. // map Cc1cc(-c2cc3cc(NC(=O)c4[nH]nc(C)c4C)cnc3[nH]2)cnc1C to recorded IC50 (system: c-kit kinase (Homo sapiens (Human), UniProt P10721))
A. 1 to 10 µM

Q. Param readout= IC50; system= c-kit kinase (Homo sapiens (Human), UniProt P10721); entry= [2H]c1c([2H])c([2H])c(-c2cc3cc(NC(=O)c4[nH]nc(C)c4C)cnc3[nH]2)c([2H])c1[2H] ; returns value.
A. 1 to 10 µM

Q. Form entry - test system: c-kit kinase (Homo sapiens (Human), UniProt P10721); read-out: IC50; molecule: CCNS(=O)(=O)c1cccc(Nc2ncc(NC(=O)c3[nH]nc(C)c3C)cn2)c1
A. 10 to 200 µM

Q. Entry Cc1n[nH]c(C(=O)Nc2cnc3[nH]c(-c4ccnc5c4OCCO5)cc3c2)c1C , system c-kit kinase (Homo sapiens (Human), UniProt P10721): what IC50 was measured?
A. 1 to 10 µM

Q. Checklist item: IC50 tested on c-kit kinase (Homo sapiens (Human), UniProt P10721), entry CCn1nccc1S(=O)(=O)Nc1cnc2[nH]c(-c3ccc(F)cc3)cc2c1 , value?
A. 1 to 10 µM

Q. What measured IC50 is associated with Cc1n[nH]c(C(=O)Nc2cnc3[nH]c(-c4cccc(C(=O)O)c4C)cc3c2)c1C on c-kit kinase (Homo sapiens (Human), UniProt P10721)?
A. 0.0001 to 1 µM

Q. Give IC50 (c-kit kinase (Homo sapiens (Human), UniProt P10721)) of the following molecule: Cc1n[nH]c(C(=O)Nc2cnc3[nH]nc(-c4cccc(N5CCNCC5)c4)c3c2)c1C
A. 0.0001 to 1 µM

Q. c-kit kinase (Homo sapiens (Human), UniProt P10721) / IC50 / Cc1n[nH]c(C(=O)Nc2cnc3[nH]c(C4=CCN(C(=O)N5CCOCC5)CC4)cc3c2)c1Cl : value?
A. 0.0001 to 1 µM

Q. For the record Cc1n[nH]c(C(=O)Nc2cnc3[nH]c(-c4c(C)noc4C)cc3c2)c1C , what value of IC50 is listed for c-kit kinase (Homo sapiens (Human), UniProt P10721)?
A. 1 to 10 µM

* * *

Give measured IC50 for each item. Keep answers brief.
TARGET OR TEST SYSTEM: c-kit mutant D816V (Homo sapiens (Human), UniProt P10721, D816V/DEL694-753)
Sequence (P10721 other isoform, or with tags, fused parts or gaps D816V/del 694-753): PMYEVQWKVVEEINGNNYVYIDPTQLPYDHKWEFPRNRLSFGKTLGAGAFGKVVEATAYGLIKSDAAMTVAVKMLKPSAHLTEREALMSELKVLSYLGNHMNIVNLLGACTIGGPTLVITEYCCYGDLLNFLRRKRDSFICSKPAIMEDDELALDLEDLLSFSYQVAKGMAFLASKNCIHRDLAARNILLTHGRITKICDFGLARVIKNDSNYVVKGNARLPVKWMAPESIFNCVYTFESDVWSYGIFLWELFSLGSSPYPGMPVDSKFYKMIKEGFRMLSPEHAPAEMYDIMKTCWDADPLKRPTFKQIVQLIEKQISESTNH
METHOD: c-Kit mutant D816V biochemical assay (AlphaScreen)
CONDITION SET: c-kit D816V biochemical inhibitory activity

Q. Give its IC50 value. Item: O=C(Nc1cnc2[nH]c(-c3ccccc3)cc2c1)c1cc(C2CC2)n[nH]1
A. 10 to 200 µM

Q. Which measured IC50 value corresponds to Cc1nc(F)ccc1-c1cc2cc(NC(=O)c3[nH]nc(C)c3C)cnc2[nH]1 ?
A. 0.0001 to 1 µM

Q. I would be grateful if you could share the reported IC50 for Cc1n[nH]c(C(=O)Nc2cnc3[nH]c(-c4ccnc(C(=O)NC5CC5)c4)cc3c2)c1C .
A. 0.0001 to 1 µM

Q. Look up IC50 for this compound: O=C(Nc1cnc2[nH]c(-c3ccccc3)cc2c1)c1ccncn1
A. 10 to 200 µM

Q. Entry Cc1[nH]nc(C(=O)Nc2cnc3[nH]c(-c4ccnc(N5CCN(C)CC5)c4)cc3c2)c1C : reported IC50 = ?
A. 0.0001 to 1 µM

Q. Find the recorded IC50 belonging to Cc1n[nH]c(C(=O)Nc2cnc3[nH]c(-c4cnc(N5CCN(C)CC5)nc4)cc3c2)c1C and report it.
A. 0.0001 to 1 µM

Q. Item Cc1n[nH]c(C(=O)Nc2cnc3[nH]c(-c4ccccc4C(F)(F)F)cc3c2)c1C has what recorded IC50?
A. 0.0001 to 1 µM

Q. Form field: reported IC50 of O=C(Nc1cnc2[nH]c(-c3ccc(F)cc3)cc2c1)c1cccc2n[nH]cc12
A. 1 to 10 µM

Q. Item under review: COc1ccc(Cl)c(-c2cc3cc(NC(=O)c4[nH]nc(C)c4C)cnc3[nH]2)c1 . Reported IC50?
A. 1 to 10 µM

Q. I am curious: what IC50 value has been reported for Cc1n[nH]c(C(=O)Nc2cnc3[nH]nc(C)c3c2)c1C ?
A. 0.0001 to 1 µM

Q. Need IC50 of Cc1cc(C(=O)Nc2cnc3[nH]c(C4=CCN(C(=O)C5CC5)CC4)cc3c2)n[nH]1 , thanks.
A. 0.0001 to 1 µM

Q. If you can, please state the reported IC50 value of COc1ccc(-c2cc3cc(NC(=O)c4[nH]nc(C)c4C)cnc3[nH]2)c(F)c1 .
A. 0.0001 to 1 µM

* * *

TARGET OR TEST SYSTEM: c-kit mutant D816V (Homo sapiens (Human), UniProt P10721, D816V/DEL694-753)
METHOD: c-Kit mutant D816V biochemical assay (AlphaScreen)
CONDITION SET: c-kit D816V biochemical inhibitory activity
QUANTITY MEASURED: IC50

Q. Look up IC50: N#CCc1cccc(C(=O)Nc2cnc3[nH]c(-c4ccc(F)cc4)cc3c2)c1 [P-2021]
A. 10 to 200 µM

Q. Requested field: IC50. Item: Cc1n[nH]c(C(=O)Nc2cnc3c(c2)cc(C2=CCN(C(=O)N4CCOCC4)CC2)n3S(=O)(=O)c2ccccc2)c1C [P-2033]
A. 0.0001 to 1 µM

Q. Can you look up the measured IC50 of Cc1n[nH]c(C(=O)Nc2cnc3[nH]c(-c4cnc(N5CCOCC5)nc4)cc3c2)c1C [P-2158] for me?
A. 0.0001 to 1 µM

Q. Given the compound Cc1n[nH]c(C(=O)Nc2cnc3[nH]c(-c4c(C)nn(C)c4C)cc3c2)c1C [P-2165] , what is its reported IC50?
A. 1 to 10 µM

Q. Request the reported IC50 associated with Cc1cc(C(=O)Nc2cnc3[nH]c(C4=CCN(C(=O)N5CCOCC5)CC4)cc3c2)n[nH]1 [P-2031]
A. 0.0001 to 1 µM

Q. Quick one: IC50 for Cc1n[nH]c(C(=O)Nc2cnc3[nH]c(-c4ccnc(N5CCN(C(=O)C6CC6)CC5)c4)cc3c2)c1C [P-2187] ?
A. 0.0001 to 1 µM

Q. Find the recorded IC50 belonging to CC(=O)Nc1cccc(C(=O)Nc2cnc3[nH]c(-c4ccc(F)cc4)cc3c2)c1 [P-2026] and report it.
A. 10 to 200 µM

Q. Reported IC50, compound Cc1n[nH]c(C(=O)Nc2cnc3[nH]c(-n4cccn4)cc3c2)c1C [P-2112] : ____
A. 0.0001 to 1 µM

Q. # query: IC50 of entry Cc1noc(C)c1C(=O)Nc1cnc2[nH]c(-c3ccccc3)cc2c1 [P-2013]
A. 10 to 200 µM

Q. Please report the recorded IC50 for Cc1nn(C2CNC2)cc1-c1cc2cc(NC(=O)c3[nH]nc(C)c3C)cnc2[nH]1 [P-2286] .
A. 0.0001 to 1 µM

Q. Look at this compound and give its reported IC50. Cc1n[nH]c(C(=O)Nc2cnc3[nH]c(C#CCF)cc3c2)c1C [P-2063]
A. 0.0001 to 1 µM

Q. Look at this compound and give its reported IC50. Cc1n[nH]c(C(=O)Nc2cnc3[nH]c(C4=CCN(S(C)(=O)=O)CC4)cc3c2)c1Cl [P-2057]
A. 0.0001 to 1 µM

Q. What IC50 value was documented for this compound, O=C(Nc1cnc2[nH]c(-c3ccccc3)cc2c1)c1cn[nH]n1 [P-2015] ?
A. 1 to 10 µM

Q. Would you kindly share the measured IC50 for Cc1cc(Cl)ccc1-c1cc2cc(NC(=O)c3[nH]nc(C)c3C)cnc2[nH]1 [P-2277] ?
A. 0.0001 to 1 µM

Q. Need IC50, item Cc1n[nH]c(C(=O)Nc2cnc3[nH]c(N4CCCC4)cc3c2)c1C [P-2115]
A. 1 to 10 µM

Q. Returns the measured IC50 for the input compound. Input: Cc1n[nH]c(C(=O)Nc2ccc(Nc3ccccc3)nc2)c1C [P-2045]
A. 0.0001 to 1 µM

Q. Bench note: what IC50 did Cc1c[nH]nc1C(=O)Nc1cnc2[nH]c(-c3ccc(F)cc3)cc2c1 [P-2029] show?
A. 0.0001 to 1 µM

Q. // query IC50 value for entry Cc1n[nH]c(C(=O)Nc2cnc3[nH]c(-c4ccc(C(=O)O)c(F)c4)cc3c2)c1C [P-2292]
A. 0.0001 to 1 µM

Q. Tell me the measured IC50 of Cc1cccnc1C(=O)Nc1cnc2[nH]c(-c3ccccc3)cc2c1 [P-2016] , please.
A. 1 to 10 µM

Q. Using the record for Cc1nn(C2COC2)cc1-c1cc2cc(NC(=O)c3[nH]nc(C)c3C)cnc2[nH]1 [P-2168] , report its IC50.
A. 0.0001 to 1 µM

Q. // query IC50 value for entry Cc1cc(C(=O)Nc2cnc3[nH]c(-c4ccccc4)nc3c2)[nH]n1 [P-2151]
A. 1 to 10 µM

Q. Which IC50 reading was recorded for the compound Cc1n[nH]c(C(=O)Nc2cnc(Nc3cccc(NS(=O)(=O)c4ccccc4)c3)nc2)c1C [P-2053] ?
A. 0.0001 to 1 µM

Q. Which value of IC50 has been reported for Cc1n[nH]c(C(=O)Nc2cnc3[nH]ccc3c2)c1C [P-2032] in the records?
A. 1 to 10 µM

Q. What measured IC50 goes with Cc1n[nH]c(C(=O)Nc2cnc3[nH]c(-c4cccc(CC(=O)O)c4)cc3c2)c1C [P-2293] ?
A. 0.0001 to 1 µM

Q. Return reported IC50; argument: Cc1n[nH]c(C(=O)Nc2cnc3[nH]c(-c4ccc(F)cc4)cc3c2)c1F [P-2275]
A. 0.0001 to 1 µM

Q. Recorded IC50 for Cc1n[nH]c(C(=O)Nc2cnc3[nH]c(-c4ccc(CC(=O)O)cc4)cc3c2)c1C [P-2295] , please?
A. 0.0001 to 1 µM
